system: asthmatic mice; assay: Airway resistance (Raw) response to methacholine in murine model of asthma; format: in vivo, Balb/cJ mice; conditions: 15 minutes of administration
reported-endpoint: Decreased Raw

{"compound": "C=CCc1ccccc1OCC(O)CNC(C)C (stereo not shown)", "reported-endpoint": "Decreased Raw", "result": "yes"}
{"compound": "CC(C)(C)NCC(O)COc1cccc2c1CC(O)C(O)C2 (stereo not shown)", "reported-endpoint": "Decreased Raw", "result": "no"}
{"compound": "CC(C)(C)NCC(O)c1ccc(O)c(CO)c1 (stereo not shown)", "reported-endpoint": "Decreased Raw", "result": "yes"}
{"compound": "COc1ccccc1OCCNCC(O)COc1cccc2[nH]c3ccccc3c12 (stereo not shown)", "reported-endpoint": "Decreased Raw", "result": "no"}

###

test system: asthmatic mice; test: Airway resistance (Raw) response to methacholine in murine model of asthma; format: in vivo, Balb/cJ mice; conditions: 2 days of administration

{"compound": "C=CCc1ccccc1OCC(O)CNC(C)C (stereo not shown) [Alprenolol, alprenolol]", "system": "asthmatic mice", "Decreased Raw": "no"}
{"compound": "CC(C)(C)NCC(O)COc1cccc2c1CC(O)C(O)C2 (stereo not shown) [Nadolol, nadolol]", "system": "asthmatic mice", "Decreased Raw": "yes"}
{"compound": "CC(C)(C)NCC(O)c1ccc(O)c(CO)c1 (stereo not shown) [Salbutamol, salbutamol]", "system": "asthmatic mice", "Decreased Raw": "no"}
{"compound": "COc1ccccc1OCCNCC(O)COc1cccc2[nH]c3ccccc3c12 (stereo not shown) [Carvedilol, carvedilol]", "system": "asthmatic mice", "Decreased Raw": "no"}

###

tested on: asthmatic mice; assay: Airway resistance (Raw) response to methacholine in murine model of asthma; format: in vivo, Balb/cJ mice; conditions: 28 days of administration

{"molecule": "COc1ccccc1OCCNCC(O)COc1cccc2[nH]c3ccccc3c12 (stereo not shown) [Carvedilol, carvedilol]", "system": "asthmatic mice", "Decreased Raw": "yes"}
{"molecule": "C=CCc1ccccc1OCC(O)CNC(C)C (stereo not shown) [Alprenolol, alprenolol]", "system": "asthmatic mice", "Decreased Raw": "no"}
{"molecule": "CC(C)(C)NCC(O)c1ccc(O)c(CO)c1 (stereo not shown) [Salbutamol, salbutamol]", "system": "asthmatic mice", "Decreased Raw": "no"}
{"molecule": "CC(C)(C)NCC(O)COc1cccc2c1CC(O)C(O)C2 (stereo not shown) [Nadolol, nadolol]", "system": "asthmatic mice", "Decreased Raw": "yes"}
